The measured values listed here are drawn from paper PMC6171423.

- target under test: UniProt P00533
- experimental protocol: Inhibition of EGFR-TK (ELISA)
measured quantity: pIC50
Reminder that pIC50 is minus the log10 of a molar concentration.

Prompt: Look at this compound and give its reported pIC50. Fc1ccc(-c2nc(Nc3cc(Br)cc4cc(-c5ccccc5)oc34)c3cc(Br)ccc3n2)cc1 [Compound 10a]
Completion: 6.95

Prompt: # pIC50 lookup, item Fc1ccc(-c2nc(Nc3cc(Br)cc4cc(-c5ccc(F)cc5)oc34)c3cc(Br)ccc3n2)cc1 [Compound 10c]
Completion: 7.28

====

- target under test: human EGFR (EGFR-TK) (Homo sapiens)
- Sequence (P00533 25-1210): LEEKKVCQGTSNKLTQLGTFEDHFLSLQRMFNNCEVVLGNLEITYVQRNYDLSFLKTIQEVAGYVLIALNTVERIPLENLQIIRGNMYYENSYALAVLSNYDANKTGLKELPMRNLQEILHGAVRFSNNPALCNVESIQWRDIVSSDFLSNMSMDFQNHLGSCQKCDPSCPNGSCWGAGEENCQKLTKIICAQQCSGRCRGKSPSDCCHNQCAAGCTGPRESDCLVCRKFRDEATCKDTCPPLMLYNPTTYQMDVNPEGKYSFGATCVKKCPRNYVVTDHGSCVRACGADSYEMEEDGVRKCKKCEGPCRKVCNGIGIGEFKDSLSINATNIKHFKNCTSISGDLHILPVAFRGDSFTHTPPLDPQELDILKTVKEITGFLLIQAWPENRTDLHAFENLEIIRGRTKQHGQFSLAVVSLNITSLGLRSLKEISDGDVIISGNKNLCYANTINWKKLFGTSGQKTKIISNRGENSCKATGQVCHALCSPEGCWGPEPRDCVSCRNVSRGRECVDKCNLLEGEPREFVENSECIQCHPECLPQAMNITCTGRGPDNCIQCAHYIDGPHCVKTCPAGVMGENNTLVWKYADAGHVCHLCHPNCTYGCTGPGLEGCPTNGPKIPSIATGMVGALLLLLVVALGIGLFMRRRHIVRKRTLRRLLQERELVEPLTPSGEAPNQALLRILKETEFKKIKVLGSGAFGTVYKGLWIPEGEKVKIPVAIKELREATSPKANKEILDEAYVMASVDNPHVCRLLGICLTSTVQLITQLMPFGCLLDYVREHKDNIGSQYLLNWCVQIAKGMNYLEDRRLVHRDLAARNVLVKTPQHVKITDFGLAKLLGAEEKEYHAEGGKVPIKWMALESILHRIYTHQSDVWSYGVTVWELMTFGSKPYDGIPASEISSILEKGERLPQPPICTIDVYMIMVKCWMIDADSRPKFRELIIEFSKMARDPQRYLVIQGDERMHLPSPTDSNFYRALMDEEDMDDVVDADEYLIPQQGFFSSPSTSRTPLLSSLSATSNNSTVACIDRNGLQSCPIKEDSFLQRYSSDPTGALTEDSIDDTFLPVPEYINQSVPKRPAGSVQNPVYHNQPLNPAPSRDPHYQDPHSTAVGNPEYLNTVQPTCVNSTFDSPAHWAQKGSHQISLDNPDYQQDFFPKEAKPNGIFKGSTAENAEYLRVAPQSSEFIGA
- experimental protocol: Inhibition of EGFR-TK (ELISA)
- condition label: read-out: IC50 against EGFR-TK; ELISA, purified EGFR
Some compounds, each annotated with its measured IC50.
The answer is to be given in nM; state only the numeric part.

Known IC50 results, listed for orientation:
# compound, target under test, IC50, nM
rows = [
    ("Fc1cccc(-c2cc3cc(Br)cc(Nc4nc(-c5ccc(Cl)cc5)nc5ccc(Br)cc45)c3o2)c1 [Compound 10g]", "human EGFR (EGFR-TK) (Homo sapiens)", 133),
    ("Clc1ccc(-c2nc(Nc3cc(Br)cc4cc(-c5cccc(Cl)c5)oc34)c3cc(Br)ccc3n2)cc1 [Compound 10i]", "human EGFR (EGFR-TK) (Homo sapiens)", 90.2),
    ("Fc1ccc(-c2nc(Nc3cc(Br)cc4cc(-c5cccc(F)c5)oc34)c3cc(Br)ccc3n2)cc1 [Compound 10b]", "human EGFR (EGFR-TK) (Homo sapiens)", 123),
    ("Fc1ccc(-c2nc(Nc3cc(Br)cc4cc(-c5ccc(OC(F)(F)F)cc5)oc34)c3cc(Br)ccc3n2)cc1 [Compound 10e]", "human EGFR (EGFR-TK) (Homo sapiens)", 31.1),
    ("Fc1ccc(-c2cc3cc(Br)cc(Nc4nc(-c5ccc(Cl)cc5)nc5ccc(Br)cc45)c3o2)cc1 [Compound 10h]", "human EGFR (EGFR-TK) (Homo sapiens)", 126),
]

Prompt: Lab note: need IC50 for Fc1ccc(-c2nc(Nc3cc(Br)cc4cc(-c5cccc(Cl)c5)oc34)c3cc(Br)ccc3n2)cc1 [Compound 10d] on human EGFR (EGFR-TK) (Homo sapiens), anyone have it?
Completion: 29.3

Prompt: # value lookup — system human EGFR (EGFR-TK) (Homo sapiens), readout IC50, item FC(F)(F)Oc1ccc(-c2cc3cc(Br)cc(Nc4nc(-c5ccc(Cl)cc5)nc5ccc(Br)cc45)c3o2)cc1 [Compound 10j]
Completion: 61.5
